Reference for the values: patent US7807691B2

experimental target: human androgen receptor (AR) (Homo sapiens)
Construct: expressed in transfected cells; host or cells: mouse myoblast C2C12 cells, transiently co-transfected with FuGENE
Sequence (P10275 1-920): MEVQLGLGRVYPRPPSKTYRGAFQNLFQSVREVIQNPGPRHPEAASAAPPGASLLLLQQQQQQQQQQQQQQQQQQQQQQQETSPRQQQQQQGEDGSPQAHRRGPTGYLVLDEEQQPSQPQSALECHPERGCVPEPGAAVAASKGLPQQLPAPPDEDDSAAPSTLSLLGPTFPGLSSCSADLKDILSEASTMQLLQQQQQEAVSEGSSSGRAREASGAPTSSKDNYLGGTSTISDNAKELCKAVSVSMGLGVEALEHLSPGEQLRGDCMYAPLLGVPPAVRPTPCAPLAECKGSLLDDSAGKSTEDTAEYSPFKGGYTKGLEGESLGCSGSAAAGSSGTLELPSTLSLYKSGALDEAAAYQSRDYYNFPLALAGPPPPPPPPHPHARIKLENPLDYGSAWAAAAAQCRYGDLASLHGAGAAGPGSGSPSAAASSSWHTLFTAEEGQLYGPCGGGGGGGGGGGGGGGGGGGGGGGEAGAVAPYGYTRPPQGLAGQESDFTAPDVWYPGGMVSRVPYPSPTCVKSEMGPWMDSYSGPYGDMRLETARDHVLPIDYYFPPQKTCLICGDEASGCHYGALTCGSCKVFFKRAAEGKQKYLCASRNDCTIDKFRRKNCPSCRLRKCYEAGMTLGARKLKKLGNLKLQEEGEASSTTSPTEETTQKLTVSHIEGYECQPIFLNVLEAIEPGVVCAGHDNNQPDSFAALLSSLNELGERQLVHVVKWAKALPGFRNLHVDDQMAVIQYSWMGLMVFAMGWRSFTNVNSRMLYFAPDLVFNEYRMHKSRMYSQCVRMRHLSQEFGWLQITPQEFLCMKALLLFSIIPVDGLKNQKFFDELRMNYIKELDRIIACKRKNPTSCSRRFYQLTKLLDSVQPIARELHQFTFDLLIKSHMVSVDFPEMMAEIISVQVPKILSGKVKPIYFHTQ
procedure text: C2C12 AR/ARE reporter assay
Assay type: cell-based
particulars: C2C12, read-out: C2C12 % Efficacy, versus maximum stimulation obtained with 10 nM methyltrienolone; average
Decision: Emax compared against 80%; not below it gives y, below it gives n.

>>> class_label("Cc1c(N2CCCC2c2ccccc2C(F)(F)F)ccc(C#N)c1Cl (stereo not shown)")
"n"
>>> class_label("COc1ccc(C2CCCN2c2ccc(C#N)c(Cl)c2C)cc1 (stereo not shown)")
"n"
>>> class_label("COc1cccc(C2CCCN2c2ccc(C#N)c(Cl)c2C)c1 (stereo not shown)")
"y"
>>> class_label("Cc1noc(C2CCCN2c2ccc(C#N)c(Cl)c2C)n1 (stereo not shown)")
"y"
>>> class_label("Cc1c(N2CC(O)CC2c2ccccc2)ccc(C#N)c1Cl (stereo not shown)")
"y"
>>> class_label("CC1(C)CC(c2ccc3c(c2)OCO3)N(c2ccc(C#N)c(Cl)c2)C1 (stereo not shown)")
"n"
>>> class_label("Cc1c(N2CCCC2c2cncnc2)ccc(C#N)c1Cl (stereo not shown)")
"y"

Problem: Check the entry CSc1cccc(C2CCCN2c2ccc(C#N)c(Cl)c2C)c1 (stereo not shown) : does Emax equal or exceed 80%?
Result: y
